- tgt: Transient receptor potential cation channel subfamily V member 1 (Homo sapiens)
- Sequence (Q8NER1 whole entry): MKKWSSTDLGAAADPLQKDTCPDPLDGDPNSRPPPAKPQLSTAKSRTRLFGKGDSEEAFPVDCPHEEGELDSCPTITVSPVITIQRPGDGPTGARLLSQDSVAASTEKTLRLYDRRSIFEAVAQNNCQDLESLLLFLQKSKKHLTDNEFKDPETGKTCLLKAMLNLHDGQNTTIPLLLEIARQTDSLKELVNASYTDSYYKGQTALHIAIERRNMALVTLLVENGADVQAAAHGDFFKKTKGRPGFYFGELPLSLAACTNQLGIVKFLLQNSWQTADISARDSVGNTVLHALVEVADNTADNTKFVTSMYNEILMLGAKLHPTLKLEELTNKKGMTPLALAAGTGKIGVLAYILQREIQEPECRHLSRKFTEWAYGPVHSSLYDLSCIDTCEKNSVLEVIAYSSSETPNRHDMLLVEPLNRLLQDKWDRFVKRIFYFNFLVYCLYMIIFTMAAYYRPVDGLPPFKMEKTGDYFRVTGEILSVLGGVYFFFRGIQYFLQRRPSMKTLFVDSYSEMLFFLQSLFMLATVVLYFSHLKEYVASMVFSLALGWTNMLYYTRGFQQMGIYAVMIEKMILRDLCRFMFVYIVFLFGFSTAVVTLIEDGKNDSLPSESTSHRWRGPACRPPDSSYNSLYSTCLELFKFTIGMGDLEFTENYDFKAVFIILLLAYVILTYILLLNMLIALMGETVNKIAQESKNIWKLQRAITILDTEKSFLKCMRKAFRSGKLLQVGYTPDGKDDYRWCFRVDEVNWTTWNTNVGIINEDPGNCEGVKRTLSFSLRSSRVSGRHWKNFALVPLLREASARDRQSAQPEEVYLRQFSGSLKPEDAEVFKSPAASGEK
- protocol-summary: Activity at human TRPV1 in HEK cells assessed by measuring capsaicin-induced calcium level by FLIPR technology
attribute-measured: IC50

> print(dat)
                                smiles.data  assay.value
1        CCCCc1ccc(C(=O)Nc2cnc3ccccc3c2)cc1      0.23 µM
2         CCCc1ccc(C(=O)Nc2cnc3ccccc3c2)cc1      0.13 µM
3    CCCCN(C)c1ccc(C(=O)Nc2cnc3ccccc3c2)cc1     0.066 µM
4  CN(CC1CCCCC1)c1ccc(C(=O)Nc2cnc3ccccc3c2)cc1      0.17 µM
5     CCCCCCCc1ccc(C(=O)Nc2cnc3ccccc3c2)cc1      > 30 µM

src = ChEMBL document CHEMBL1144729
